Reported Kd values are given for each entry in this list.
# experimental.system: JAK2 (JH1 domain-catalytic, Y1007F, Y1008F) kinase (Homo sapiens (Human), UniProt O60674, Y1007F/Y1008F)
# Sequence (O60674 849-1124 Y1007F/Y1008F): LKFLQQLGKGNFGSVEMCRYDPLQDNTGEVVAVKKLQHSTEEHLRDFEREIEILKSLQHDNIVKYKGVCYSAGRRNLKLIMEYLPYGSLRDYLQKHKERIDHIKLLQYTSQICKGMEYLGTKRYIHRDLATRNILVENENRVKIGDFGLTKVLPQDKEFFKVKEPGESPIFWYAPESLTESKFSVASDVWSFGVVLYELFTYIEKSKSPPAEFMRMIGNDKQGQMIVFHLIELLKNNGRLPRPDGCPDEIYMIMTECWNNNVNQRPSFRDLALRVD
# protocol.text: JAK2 JH1 Domain Binding Assay
# experimental.setup: qPCR readout
# Experimental: JAK2 (JH1 domain-catalytic, Y1007F, Y1008F) kinase was expressed as N-terminal fusion to the DNA binding domain of NFkB in transiently transfected HEK293 cells and subsequently tagged with DNA for qPCR detection. Streptavidin-coated magnetic beads were treated with biotinylated small molecule ligands for 30 minutes at room temperature to generate affinity resins for kinase assays. […] The kinase concentration in the eluate was measured by qPCR.

molecule	recorded.value
CC(=O)Nc1cnc(N2CCC(CC(=O)Nc3cc(C(F)(F)F)cn(C)c3=O)CC2)cn1 [Example I-3]	0.05 to 1 µM
C[C@H]1C[C@@H](N(C)C(=O)Nc2cc(C(F)(F)F)cn(C)c2=O)CCN1c1cnc2[nH]ncc2c1 [Example I-105-a]	< 0.01 µM
CN(C(=O)Nc1cc(C(F)(F)F)cn(C)c1=O)[C@@H]1CCN(c2cnc3[nH]ccc3n2)CC1(F)F (single isomer, unassigned) [Example I-27-a]	< 0.01 µM
CN(C(=O)Nc1cc(C(F)(F)F)cn(C)c1=O)C12CCC(c3cnc4[nH]ncc4c3)(CC1)OC2 [Example I-168]	< 0.01 µM
CN(C(=O)Nc1cc(C(F)(F)F)cn(C)c1=O)C1CCN(c2cnc3[nH]ccc3n2)CC1 [Example I-15]	< 0.01 µM
CN(C(=O)Nc1cc(C(F)(F)F)cn(C)c1=O)[C@H]1CCN(c2cnc3[nH]ccc3n2)C[C@@H]1F (single isomer, unassigned) [Example I-63-b]	< 0.01 µM

Notebook: CN(C(=O)Nc1cc(C(F)(F)F)cn(C)c1=O)C1CCN(c2cnc3[nH]ccc3n2)CC1(C)C (single isomer, unassigned) [Example I-49-a] , Kd read as < 0.01 µM

Notebook: CN(C(=O)Nc1cc(C(F)(F)F)cn(C)c1=O)C1CC2(C1)CN(c1cnc3[nH]ncc3n1)C2 [Example I-72] , Kd read as < 0.01 µM
